Each record here notes measured pKa of the phenolic side-chain.
assay.overview: Side-chain acidity: pKa by 1H NMR titration of free amino acids
Format: physicochemical
test.settings: experimental error ±0.15
// no unit string in output, number only

{"line.notation": "N[C@@H](Cc1cc(I)c(O)c(I)c1)C(=O)O", "pKa of the phenolic side-chain": 6.45}
{"line.notation": "N[C@@H](Cc1ccc(O)c(Br)c1)C(=O)O", "pKa of the phenolic side-chain": 8.29}
{"line.notation": "N[C@@H](Cc1cc(Cl)c(O)c(Cl)c1)C(=O)O", "pKa of the phenolic side-chain": 6.52}

Now, please, on to the next compound.
pKa of the phenolic side-chain recorded for this compound, N[C@@H](Cc1ccc(O)c(Cl)c1)C(=O)O , is 8.31
